# Assay details: Plasma concentrations of BVDU, BVU and GEM in patients of the dose finding study (HPLC)
# Type: in vivo, human
# Condition label: both sexes, human, plasma, po, dose level 6000 mg; 2.0 hr; day 1; oral BVDU; read-out: BVDU plasma concentration, Mean
Readout: concentration at 2 hr (ng/mL)
Write the value in ng/mL as a bare number.

Which concentration at 2 hr value belongs to O=c1[nH]c(=O)n([C@H]2C[C@H](O)[C@@H](CO)O2)cc1/C=C/Br [BVDU, (E)-5-(2-bromovinyl)-2′-deoxyuridine] ?
231

###

# Assay details: Plasma concentrations of BVDU, BVU and GEM in patients of the dose finding study (HPLC)
# Assay type: in vivo, human
# Condition label: human, plasma, po, dose level 9000 mg; 0.5 hr; day 1; oral BVDU; read-out: BVDU plasma concentration, Mean
Readout: concentration at 0.5 h (ng/mL)
Write the value in ng/mL as a bare number.

Which concentration at 0.5 h value belongs to O=c1[nH]c(=O)n([C@H]2C[C@H](O)[C@@H](CO)O2)cc1/C=C/Br [BVDU, (E)-5-(2-bromovinyl)-2′-deoxyuridine] ?
942

###

# Assay details: Plasma concentrations of BVDU, BVU and GEM in patients of the dose finding study (HPLC)
# Type: in vivo, human
# Condition label: both sexes, human, plasma, po, dose level 12000 mg; 3.0 hr; day 1; oral BVDU; read-out: BVDU plasma concentration, Median
Readout: concentration at 3 h
Just the number plus its unit, please.

Which concentration at 3 h value belongs to O=c1[nH]c(=O)n([C@H]2C[C@H](O)[C@@H](CO)O2)cc1/C=C/Br [BVDU, (E)-5-(2-bromovinyl)-2′-deoxyuridine] ?
407 ng/mL

###

# Assay details: Plasma concentrations of BVDU, BVU and GEM in patients of the dose finding study (HPLC)
# Format: in vivo, human
# Condition label: both sexes, human, plasma, po, dose level 6000 mg; 1.0 hr; day 1; oral BVDU; read-out: BVDU plasma concentration, Mean
Readout: concentration at 1 hr (ng/mL)
Write the value in ng/mL as a bare number.

Which concentration at 1 hr value belongs to O=c1[nH]c(=O)n([C@H]2C[C@H](O)[C@@H](CO)O2)cc1/C=C/Br [BVDU, (E)-5-(2-bromovinyl)-2′-deoxyuridine] ?
177

###

# Assay details: Plasma concentrations of BVDU, BVU and GEM in patients of the dose finding study (HPLC)
# Assay type: in vivo, human
# Condition label: both sexes, human, plasma, po, dose level 12000 mg; 1.5 hr; day 1; oral BVDU; read-out: BVDU plasma concentration, patient
Readout: concentration at 1.5 h (ng/mL)
Write the value in ng/mL as a bare number.

Which concentration at 1.5 h value belongs to O=c1[nH]c(=O)n([C@H]2C[C@H](O)[C@@H](CO)O2)cc1/C=C/Br [BVDU, (E)-5-(2-bromovinyl)-2′-deoxyuridine] ?
844

###

# Assay details: Plasma concentrations of BVDU, BVU and GEM in patients of the dose finding study (HPLC)
# Type: in vivo, human
# Condition label: human, plasma, po, dose level 9000 mg; 0.0 hr; day 1; oral BVDU; read-out: BVDU plasma concentration, patient
Readout: concentration at 0 h (ng/mL)
Write the value in ng/mL as a bare number.

Which concentration at 0 h value belongs to O=c1[nH]c(=O)n([C@H]2C[C@H](O)[C@@H](CO)O2)cc1/C=C/Br [BVDU, (E)-5-(2-bromovinyl)-2′-deoxyuridine] ?
0
